The measurements presented in this section are drawn from ChEMBL document CHEMBL1134658.

Target: Cytochrome P450 2C9 (Homo sapiens, UniProt P11712)
Sequence (P11712 whole entry): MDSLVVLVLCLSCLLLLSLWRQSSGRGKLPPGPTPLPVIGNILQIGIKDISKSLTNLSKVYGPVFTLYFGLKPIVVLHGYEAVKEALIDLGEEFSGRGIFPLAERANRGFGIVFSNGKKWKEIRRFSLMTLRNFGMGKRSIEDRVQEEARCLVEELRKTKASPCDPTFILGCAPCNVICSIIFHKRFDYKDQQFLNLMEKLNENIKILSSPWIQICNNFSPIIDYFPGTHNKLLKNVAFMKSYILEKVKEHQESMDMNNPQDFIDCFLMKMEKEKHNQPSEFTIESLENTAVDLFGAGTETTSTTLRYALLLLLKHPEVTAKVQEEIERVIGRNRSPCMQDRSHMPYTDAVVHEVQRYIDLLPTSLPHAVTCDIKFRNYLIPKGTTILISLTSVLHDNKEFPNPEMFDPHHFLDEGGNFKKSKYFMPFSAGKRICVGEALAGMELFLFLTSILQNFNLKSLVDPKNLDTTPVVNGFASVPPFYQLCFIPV
Test: Inhibitory effect on human recombinant liver cytochrome P450 2C9 expressed in yeast strain
OBSERVABLE: IC50 (µM)
Your answer should be a plain number; it is taken to be in µM.

Example entries begin here.
Nc1ccc(S(=O)(=O)N(Cc2ccccc2)c2ccnn2-c2ccccc2)cc1; 55
Cc1ccc(S(=O)(=O)N(C)c2ccnn2-c2ccccc2)cc1; 10
CC(C)N(c1ccnn1-c1ccccc1)S(=O)(=O)c1ccc(N)cc1; 80
CCCN(c1ccnn1-c1ccccc1)S(=O)(=O)c1ccc(C)cc1; 20
CN(c1ccnn1-c1ccccc1)S(=O)(=O)c1ccc(N)cc1; 100
C=CCc1ccc(S(=O)(=O)Nc2ccnn2-c2ccccc2)cc1; 1
CCN(c1ccnn1-c1ccccc1)S(=O)(=O)c1ccc(N)cc1; 90
CCCN(c1ccnn1-c1ccccc1)S(=O)(=O)c1ccc(N)cc1; 55

Query block: Give the measured IC50 of CCCCN(c1ccnn1-c1ccccc1)S(=O)(=O)c1ccc(N)cc1 .
Result block: 50

Query block: Give the measured IC50 of O=[N+]([O-])c1cccc(-c2ccc(S(=O)(=O)N(CCO)c3ccnn3-c3ccccc3)cc2)c1 .
Result block: 20

---

Biological target: Cytochrome P450 2C18 (Homo sapiens)
Sequence (P33260 whole entry): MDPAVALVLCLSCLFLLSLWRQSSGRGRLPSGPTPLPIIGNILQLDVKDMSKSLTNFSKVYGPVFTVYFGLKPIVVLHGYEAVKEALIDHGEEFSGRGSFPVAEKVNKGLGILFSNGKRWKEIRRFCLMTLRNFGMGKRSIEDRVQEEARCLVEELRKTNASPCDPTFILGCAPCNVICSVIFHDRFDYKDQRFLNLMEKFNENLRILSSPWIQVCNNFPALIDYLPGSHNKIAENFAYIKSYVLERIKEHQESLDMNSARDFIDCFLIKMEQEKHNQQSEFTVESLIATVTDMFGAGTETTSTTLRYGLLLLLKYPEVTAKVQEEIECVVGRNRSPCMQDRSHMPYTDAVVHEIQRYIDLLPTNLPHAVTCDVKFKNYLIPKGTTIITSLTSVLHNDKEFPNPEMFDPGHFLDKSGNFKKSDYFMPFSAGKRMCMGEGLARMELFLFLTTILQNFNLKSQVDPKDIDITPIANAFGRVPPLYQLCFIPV
Assay: Inhibitory effect on human recombinant liver cytochrome P450 2C18 expressed in yeast strain
Kindly apply the following: criterion met if IC50 is less than 10 µM, criterion not met in every other case.

As a guide, the following entries are already answered.
O=[N+]([O-])c1cccc(-c2ccc(S(=O)(=O)N(CCCO)c3ccnn3-c3ccccc3)cc2)c1; criterion met
O=[N+]([O-])c1cccc(-c2ccc(S(=O)(=O)N(CCO)c3ccnn3-c3ccccc3)cc2)c1; criterion met
CN(c1ccnn1-c1ccccc1)S(=O)(=O)c1ccc(N)cc1; criterion not met

Query block: Problem: For the compound CCCN(c1ccnn1-c1ccccc1)S(=O)(=O)c1ccc(N)cc1 , is IC50 under 10 µM?
Result block: criterion met

Query block: Problem: For the compound Nc1ccc(S(=O)(=O)N(Cc2ccccc2)c2ccnn2-c2ccccc2)cc1 , is IC50 under 10 µM?
Result block: criterion met

Query block: Problem: For the compound CCCN(c1ccnn1-c1ccccc1)S(=O)(=O)c1ccc(C)cc1 , is IC50 under 10 µM?
Result block: criterion not met

Query block: Problem: For the compound CCCCN(c1ccnn1-c1ccccc1)S(=O)(=O)c1ccc(N)cc1 , is IC50 under 10 µM?
Result block: criterion met

Query block: Problem: For the compound Nc1ccc(S(=O)(=O)Nc2ccnn2-c2ccccc2)cc1 , is IC50 under 10 µM?
Result block: criterion not met

Query block: Problem: For the compound Nc1ccc(S(=O)(=O)N(CCCO)c2ccnn2-c2ccccc2)cc1 , is IC50 under 10 µM?
Result block: criterion not met

---

Measured IC50, listed per entry for reference.
Molecular target: UniProt:P10632
Sequence (P10632 whole entry): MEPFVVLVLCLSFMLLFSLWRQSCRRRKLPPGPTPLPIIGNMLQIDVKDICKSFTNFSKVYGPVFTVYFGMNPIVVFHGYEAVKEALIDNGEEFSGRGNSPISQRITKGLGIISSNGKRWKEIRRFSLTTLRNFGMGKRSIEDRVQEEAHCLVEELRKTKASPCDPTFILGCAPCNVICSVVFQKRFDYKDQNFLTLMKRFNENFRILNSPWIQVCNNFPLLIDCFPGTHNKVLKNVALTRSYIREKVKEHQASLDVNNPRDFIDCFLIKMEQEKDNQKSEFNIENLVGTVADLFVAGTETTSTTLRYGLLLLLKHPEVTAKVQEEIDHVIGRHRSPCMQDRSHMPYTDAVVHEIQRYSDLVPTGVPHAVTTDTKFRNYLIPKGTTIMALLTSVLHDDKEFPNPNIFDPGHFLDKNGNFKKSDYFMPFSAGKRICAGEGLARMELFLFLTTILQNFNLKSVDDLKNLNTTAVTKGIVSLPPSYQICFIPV
Experiment: Inhibitory effect on human recombinant liver Cytochrome P450 2C8 expressed in yeast strain
Your answer should be a plain number; it is taken to be in µM.

Query block: Give the measured IC50 of CCCN(c1ccnn1-c1ccccc1)S(=O)(=O)c1ccc(C)cc1 .
Result block: 15

Query block: Give the measured IC50 of Nc1ccc(S(=O)(=O)N(CCCO)c2ccnn2-c2ccccc2)cc1 .
Result block: 22

Query block: Give the measured IC50 of Nc1ccc(S(=O)(=O)Nc2ccnn2-c2ccccc2)cc1 .
Result block: 130

Query block: Give the measured IC50 of CC(C)N(c1ccnn1-c1ccccc1)S(=O)(=O)c1ccc(N)cc1 .
Result block: 30

Query block: Give the measured IC50 of CN(c1ccnn1-c1ccccc1)S(=O)(=O)c1ccc(N)cc1 .
Result block: 50

Query block: Give the measured IC50 of CCN(c1ccnn1-c1ccccc1)S(=O)(=O)c1ccc(N)cc1 .
Result block: 13

Query block: Give the measured IC50 of CCCCN(c1ccnn1-c1ccccc1)S(=O)(=O)c1ccc(N)cc1 .
Result block: 4
